EXPERIMENTAL SETUP: pH 7.5
Log P for assorted molecules
Please give only the number in your answer, with no unit.

CCOC(=O)C(C#N)=C(NC(C)C1CC1)c1cccnc1Cl (centres unmarked) [Compound 878]; 2.93
CCOC(=O)C(C#N)=C(NC(C)c1nccs1)c1cccnc1OCC (racemic) [Compound 148]; 2.89
CCOC(=O)C(C#N)=C(NC(C)CCCC(C)C)c1cccnc1Cl (mixture of isomers) [Compound 1582]; 4.47

GET /value?item= CCOC(=O)C(C#N)=C(Nc1ccccc1OC(F)(F)F)c1cccnc1Cl [Compound 529] &field=Log P returns 3.46

GET /value?item= CCOC(=O)C(C#N)=C(NC(C)C1CC1)c1ccc(Cl)nc1Cl (mixture of isomers) [Compound 914] &field=Log P returns 3.54

---

EXPERIMENTAL SETUP: pH 2.7
Marks after values point to notes of the source that are not given here.
ENDPOINT NAME: Log P

COC(=O)C(C#N)=C(NC(C)CF)c1cccnc1Cl (centres unmarked) [Compound 746]; 2.05^[a]

GET /value?item= COC(=O)C(C#N)=C(NCc1ccccn1)c1cn(C)nc1C(F)F [Compound 58] &field=Log P returns 1.63^[a]

GET /value?item= COC(=O)C(C#N)=C(NC1CCCC(C)C1)c1cccnc1Cl (centres unmarked) [Compound 1074] &field=Log P returns 3.37^[a]

GET /value?item= COC(=O)C(C#N)=C(NC(C)c1cccnc1)c1cccnc1Cl (centres unmarked) [Compound 109] &field=Log P returns 0.82^[a]

GET /value?item= CCOC(=O)C(C#N)=C(Nc1ccccc1SC(F)(F)C(F)(F)F)c1cc(C)oc1C [Compound 415] &field=Log P returns 4.7^[a]

---

EXPERIMENTAL SETUP: pH 7.5
ENDPOINT NAME: Log P
Please give only the number in your answer, with no unit.

CCOC(=O)C(C#N)=C(NC(C)Cn1nc(C(F)(F)C(F)(F)F)nc1SC)c1cccnc1Cl (stereo not shown); 3.66
CCOC(=O)C(C#N)=C(NC(C)C(C)C)c1cccnc1Cl (stereo not shown) [Compound 952]; 3.33

// next item, Log P requested
GET /value?item= CCOC(=O)C(C#N)=C(NC(C)C(C)C)c1cccnc1-c1cc(Cl)cc(Cl)c1 (stereo not shown) &field=Log P returns 4.67

---

EXPERIMENTAL SETUP: pH 7.5
ENDPOINT NAME: Log P
Please give only the number in your answer, with no unit.

The cases that follow already have their Log P on record.
CCOC(=O)C(C#N)=C(NC(C)C(C)C)c1cccnc1-c1cncnc1 (centres unmarked); 2.42
CCOC(=O)C(C#N)=C(NC1CCCCC1C)c1cccnc1Cl (centres unmarked); 3.7
CCOC(=O)C(C#N)=C(NC(C)Cc1ncc(C(F)(F)F)cc1Cl)c1cccnc1Cl (racemic); 3.76
CCOC(=O)C(C#N)=C(NC(C)CSC)c1cccnc1OC (centres unmarked); 2.95
CCNC(=O)C(C#N)=C(NC(C)c1nccs1)c1ccc(Cl)nc1Cl (centres unmarked); 2.65
CC(C)COC(=O)C(C#N)=C(NC(C)c1nccs1)c1cccnc1Cl (centres unmarked); 3.13
CSCC(C)NC(=C(C#N)C(=O)OCC(F)(F)F)c1cccnc1Cl (centres unmarked); 2.98
CCOC(=O)C(C#N)=C(NC(C)C(N)=S)c1cccnc1Cl (centres unmarked); 1.87

// next item, Log P requested
GET /value?item= COC(=O)C(C#N)=C(N[C@@H](C)C1CCCCC1)c1cccnc1Cl &field=Log P returns 3.76
